METHOD SUMMARY: Plasma pharmacokinetics after single oral dose of Δ8-THCV in MCT oil (LC-MS/MS, non-compartmental analysis)
Type: in vivo, human
Design: unit not given here
TEST PARAMETERS: 12.5 mg single oral Δ8-THCV in MCT oil; plasma; Mean (±SD)
Here, each record is paired with measured Clast (last quantifiable concentration) data.
OBSERVATION TYPE: Clast (last quantifiable concentration)

CCCc1cc(O)c2c(c1)OC(C)(C)[C@@H]1CCC(C(=O)O)=C[C@@H]21	1.9 (±0.8)
CCCc1cc(O)c2c(c1)OC(C)(C)[C@@H]1CC=C(C)C[C@@H]21 [Δ8-THCV, Δ8-tetrahydrocannabivarin]	0.9 (±0.3)
CCCc1cc(O)c2c(c1)OC(C)(C)[C@@H]1CC=C(CO)C[C@@H]21 (racemic) [11-OH-Δ8-THCV, (±)-11-hydroxy-Δ8-THCV]	0.8 (±0.2)
CCCc1cc(O)c2c(c1)OC(C)(C)[C@@H]1CC=C(C(=O)O)C[C@@H]21	46.8 (±23)
